testedTarget: MC1R (Homo sapiens)
Construct: host or cells: CHO-K1 (ECL assay)
Sequence (Q01726 whole entry): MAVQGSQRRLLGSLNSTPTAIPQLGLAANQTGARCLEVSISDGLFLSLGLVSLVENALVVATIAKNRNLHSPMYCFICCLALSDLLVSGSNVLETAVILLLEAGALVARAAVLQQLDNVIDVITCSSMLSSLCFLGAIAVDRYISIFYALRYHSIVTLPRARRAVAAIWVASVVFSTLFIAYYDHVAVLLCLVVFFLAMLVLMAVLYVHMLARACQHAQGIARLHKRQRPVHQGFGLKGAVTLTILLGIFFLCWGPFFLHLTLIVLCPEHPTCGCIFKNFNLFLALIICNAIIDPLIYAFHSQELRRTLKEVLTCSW
experiment: cAMP assay (EC50), MC1R
Type: cell-based
measurementSetup: EC50(MC1R)/EC50(MC4R)
Bridge positions count the residues as written; N and C are the ends. Square brackets hold non-standard residues; d marks the D form. Peptide text beside a SMILES is read from it. dPhe(4-F) = N[C@H](Cc1ccc(F)cc1)C(=O)O
quantityMeasured: Ratios of EC50 values MC1/4

Sample records with Ratios of EC50 values MC1/4:
[
  {
    "molecule": "CC(=O)N[C@@H](CCCNC(=N)N)C(=O)N[C@H]1CSSC[C@@H](C(N)=O)NC(=O)[C@H](Cc2c[nH]c3ccccc23)NC(=O)[C@H](CCCNC(=N)N)NC(=O)[C@@H](Cc2ccc(F)cc2)NC(=O)[C@@H]2CCCN2C(=O)[C@@H](C)NC1=O [Compound 14] (Ac-RC[dA]P[dPhe(4-F)]RWC-NH2; disulfide 2-8)",
    "reportedResult": 7
  },
  {
    "molecule": "CC(=O)N[C@@H](CCCNC(=N)N)C(=O)N[C@H]1CSSC[C@@H](C(N)=O)NC(=O)[C@H](Cc2c[nH]c3ccccc23)NC(=O)[C@H](CCCNC(=N)N)NC(=O)[C@@H](Cc2ccccc2)NC(=O)[C@H](Cc2c[nH]cn2)NC(=O)[C@@H](CC(C)C)NC1=O",
    "reportedResult": 0.68
  },
  {
    "molecule": "CC(=O)N[C@@H](CCCNC(=N)N)C(=O)N[C@H]1CSSC[C@@H](C(N)=O)NC(=O)[C@H](Cc2c[nH]c3ccccc23)NC(=O)[C@H](CCCNC(=N)N)NC(=O)[C@@H](Cc2ccccc2)NC(=O)[C@H](Cc2cn(C)cn2)NC(=O)[C@@H](C)NC1=O",
    "reportedResult": 40
  }
]

Could you now look at the following molecule, please?
Reported Ratios of EC50 values MC1/4, molecule CC(=O)N[C@@H](CCCNC(=N)N)C(=O)N[C@H]1CSSC[C@@H](C(N)=O)NC(=O)[C@H](Cc2c[nH]c3ccccc23)NC(=O)[C@H](CCCNC(=N)N)NC(=O)[C@@H](Cc2ccccc2)NC(=O)[C@H](Cc2cncn2C)NC(=O)[C@@H](C)NC1=O : ____
4

All values here come from patent US12285460B2.
